Source: patent US11926642B2

system: UniProtKB P00734
pIC50: −log10 of the molar value.
observable: pIC50

substance.smiles | system | obs.value
COc1cccc2[nH]c(C(=O)N[C@@H](CC(C)C)C(=O)N[C@@H](C[C@@H]3CCNC3=O)C(=O)CO)cc12 | UniProtKB P00734 | < 4.00

---

system: HKU9-CoV 3CLpro (Bat coronavirus HKU9)
Sequence (P0C6W5 3104-3409 limits assumed): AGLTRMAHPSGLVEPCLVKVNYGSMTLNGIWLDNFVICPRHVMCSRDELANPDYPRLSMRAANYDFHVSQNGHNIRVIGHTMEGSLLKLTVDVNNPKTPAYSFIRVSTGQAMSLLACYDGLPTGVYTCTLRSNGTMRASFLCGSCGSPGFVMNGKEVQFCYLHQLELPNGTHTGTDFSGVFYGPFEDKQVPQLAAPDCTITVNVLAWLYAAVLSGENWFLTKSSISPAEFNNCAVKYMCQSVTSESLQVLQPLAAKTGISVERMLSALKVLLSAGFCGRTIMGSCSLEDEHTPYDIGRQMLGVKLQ
observable: Ki

substance.smiles | obs.value
COc1cccc2[nH]c(C(=O)N[C@@H](CC(C)C)C(=O)N[C@@H](C[C@@H]3CCNC3=O)C(=O)CO)cc12 | 0.8 nM

---

system: OAT1 (Homo sapiens, UniProt Q4U2R8)
Sequence (Q4U2R8 whole entry): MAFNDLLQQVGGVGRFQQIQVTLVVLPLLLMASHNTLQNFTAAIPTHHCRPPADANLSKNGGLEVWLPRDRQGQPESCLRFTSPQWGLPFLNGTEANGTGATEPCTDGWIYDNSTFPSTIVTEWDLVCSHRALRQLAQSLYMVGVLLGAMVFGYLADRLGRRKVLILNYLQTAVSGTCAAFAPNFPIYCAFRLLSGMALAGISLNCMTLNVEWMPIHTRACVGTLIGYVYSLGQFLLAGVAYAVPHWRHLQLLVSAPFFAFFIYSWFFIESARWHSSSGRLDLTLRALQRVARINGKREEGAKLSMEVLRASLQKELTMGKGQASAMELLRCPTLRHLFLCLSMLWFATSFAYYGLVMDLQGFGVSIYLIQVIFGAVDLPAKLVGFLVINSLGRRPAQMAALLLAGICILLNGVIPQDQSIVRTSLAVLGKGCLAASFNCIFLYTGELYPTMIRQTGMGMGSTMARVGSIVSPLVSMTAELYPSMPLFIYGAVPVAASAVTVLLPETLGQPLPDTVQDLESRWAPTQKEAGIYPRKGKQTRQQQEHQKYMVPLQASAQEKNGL
pIC50: −log10 of the molar value.

substance.smiles | pIC50
COc1cccc2[nH]c(C(=O)N[C@@H](CC(C)C)C(=O)N[C@@H](C[C@@H]3CCNC3=O)C(=O)CO)cc12 | < 4.70

---

system: Pgp (Homo sapiens)
observable: IC50

substance.smiles | obs.value
COc1cccc2[nH]c(C(=O)N[C@@H](CC(C)C)C(=O)N[C@@H](C[C@@H]3CCNC3=O)C(=O)CO)cc12 | > 20 µM

---

assay.name: physchem

compound | solubility
COc1cccc2[nH]c(C(=O)N[C@@H](CC(C)C)C(=O)N[C@@H](C[C@@H]3CCNC3=O)C(=O)COP(=O)(O)O)cc12 [Example 49] | > 200 mg/mL

---

system: Human Cathepsin B (Homo sapiens, UniProt P07858)
pIC50: −log10 of the molar value.
observable: pIC50

substance.smiles | system | obs.value
COc1cccc2[nH]c(C(=O)N[C@@H](CC(C)C)C(=O)N[C@@H](C[C@@H]3CCNC3=O)C(=O)CO)cc12 | Human Cathepsin B (Homo sapiens, UniProt P07858) | 5.21

---

system: CYP2C8 (Homo sapiens)
Sequence (P10632 whole entry): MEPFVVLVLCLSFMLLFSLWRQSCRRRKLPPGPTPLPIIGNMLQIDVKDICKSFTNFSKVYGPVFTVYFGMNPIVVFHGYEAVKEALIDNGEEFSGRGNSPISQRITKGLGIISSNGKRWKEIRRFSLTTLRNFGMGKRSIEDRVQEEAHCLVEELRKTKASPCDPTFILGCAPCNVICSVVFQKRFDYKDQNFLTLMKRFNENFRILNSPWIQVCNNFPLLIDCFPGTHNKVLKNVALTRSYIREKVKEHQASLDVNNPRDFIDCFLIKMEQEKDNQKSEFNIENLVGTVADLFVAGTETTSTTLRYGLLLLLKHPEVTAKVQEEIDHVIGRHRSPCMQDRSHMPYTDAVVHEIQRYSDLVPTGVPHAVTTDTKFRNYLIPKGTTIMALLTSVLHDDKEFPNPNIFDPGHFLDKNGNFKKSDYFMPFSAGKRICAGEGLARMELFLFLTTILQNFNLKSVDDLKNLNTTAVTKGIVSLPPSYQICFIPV
pIC50: −log10 of the molar value.

compound | system | pIC50
COc1cccc2[nH]c(C(=O)N[C@@H](CC(C)C)C(=O)N[C@@H](C[C@@H]3CCNC3=O)C(=O)CO)cc12 [parent compound] | CYP2C8 (Homo sapiens) | < 3.70

---

system: Human Cathepsin D (Homo sapiens, UniProt P07339)
Sequence (P07339 65-412): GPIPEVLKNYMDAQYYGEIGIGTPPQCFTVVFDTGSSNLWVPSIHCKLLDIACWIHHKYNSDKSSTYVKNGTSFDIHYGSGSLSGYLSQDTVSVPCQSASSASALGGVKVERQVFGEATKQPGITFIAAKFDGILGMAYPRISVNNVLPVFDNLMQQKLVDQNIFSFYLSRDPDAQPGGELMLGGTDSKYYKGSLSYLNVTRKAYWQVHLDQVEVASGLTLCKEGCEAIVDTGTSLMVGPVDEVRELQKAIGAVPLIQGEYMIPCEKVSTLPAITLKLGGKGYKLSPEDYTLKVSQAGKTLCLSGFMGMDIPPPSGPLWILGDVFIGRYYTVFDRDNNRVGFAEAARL
pIC50: −log10 of the molar value.
observable: pIC50

substance.smiles | system | obs.value
COc1cccc2[nH]c(C(=O)N[C@@H](CC(C)C)C(=O)N[C@@H](C[C@@H]3CCNC3=O)C(=O)CO)cc12 | Human Cathepsin D (Homo sapiens, UniProt P07339) | < 4.95

---

system: OCT2 (Homo sapiens, UniProt O15244)
Sequence (O15244 whole entry): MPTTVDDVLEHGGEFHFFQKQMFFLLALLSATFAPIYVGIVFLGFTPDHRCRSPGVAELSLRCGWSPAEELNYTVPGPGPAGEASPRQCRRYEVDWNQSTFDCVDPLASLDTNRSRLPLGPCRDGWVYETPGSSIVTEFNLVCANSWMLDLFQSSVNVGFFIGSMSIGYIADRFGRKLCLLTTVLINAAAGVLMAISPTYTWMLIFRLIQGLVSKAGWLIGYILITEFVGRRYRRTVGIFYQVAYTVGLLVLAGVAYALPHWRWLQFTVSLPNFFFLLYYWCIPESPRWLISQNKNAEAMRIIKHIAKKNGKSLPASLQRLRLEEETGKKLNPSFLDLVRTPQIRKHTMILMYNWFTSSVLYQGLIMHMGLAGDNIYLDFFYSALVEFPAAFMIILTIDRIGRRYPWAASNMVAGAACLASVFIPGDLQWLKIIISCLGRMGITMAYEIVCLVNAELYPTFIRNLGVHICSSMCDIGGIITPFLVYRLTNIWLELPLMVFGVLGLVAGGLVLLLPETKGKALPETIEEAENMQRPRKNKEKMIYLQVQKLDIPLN

substance.smiles | system | IC50
COc1cccc2[nH]c(C(=O)N[C@@H](CC(C)C)C(=O)N[C@@H](C[C@@H]3CCNC3=O)C(=O)CO)cc12 | OCT2 (Homo sapiens, UniProt O15244) | > 20 µM

---

System: SARS-CoV-2 Washington strain 1
Type: cell-based
test.context: read-out: EC50 μM GeoMean (95% CI)
observable: EC50 (µM)

compound | observable | obs.value
COc1cccc2[nH]c(C(=O)N[C@@H](CC(C)C)C(=O)N[C@@H](C[C@@H]3CCNC3=O)C(=O)CO)cc12 [parent compound] | EC50 | 0.23

---

system: HIV-1 protease (Human immunodeficiency virus type 1 group M subtype B, UniProt P04585)
pIC50: −log10 of the molar value.

substance.smiles | pIC50
COc1cccc2[nH]c(C(=O)N[C@@H](CC(C)C)C(=O)N[C@@H](C[C@@H]3CCNC3=O)C(=O)CO)cc12 | < 4.95

---

Tested on: Vero E6-EGFP cells
test.context: read-out: CC50 μM GeoMean (95% CI); efflux inhibitor 0.5 μM

substance.smiles | CC50
COc1cccc2[nH]c(C(=O)N[C@@H](CC(C)C)C(=O)N[C@@H](C[C@@H]3CCNC3=O)C(=O)CO)cc12 | > 100 µM

---

System: Vero E6-EGFP cells
test.context: read-out: CC50 μM GeoMean (95% CI); efflux inhibitor 2 μM

substance.smiles | CC50
COc1cccc2[nH]c(C(=O)N[C@@H](CC(C)C)C(=O)N[C@@H](C[C@@H]3CCNC3=O)C(=O)CO)cc12 | > 50 µM

---

system: UniProt P42575
Sequence (P42575 348-452): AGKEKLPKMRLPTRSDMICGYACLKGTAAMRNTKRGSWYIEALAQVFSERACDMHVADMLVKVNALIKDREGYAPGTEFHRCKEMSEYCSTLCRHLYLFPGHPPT
Sequence (P42575 170-325): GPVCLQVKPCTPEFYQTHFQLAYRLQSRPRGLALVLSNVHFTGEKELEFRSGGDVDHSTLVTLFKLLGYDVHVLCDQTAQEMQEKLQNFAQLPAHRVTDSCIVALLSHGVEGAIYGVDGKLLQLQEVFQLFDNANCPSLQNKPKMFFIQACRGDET
observable: IC50

substance.smiles | obs.value
COc1cccc2[nH]c(C(=O)N[C@@H](CC(C)C)C(=O)N[C@@H](C[C@@H]3CCNC3=O)C(=O)CO)cc12 | > 33.3 µM

---

system: CYP2C19 (Homo sapiens)

compound | IC50
COc1cccc2[nH]c(C(=O)N[C@@H](CC(C)C)C(=O)N[C@@H](C[C@@H]3CCNC3=O)C(=O)CO)cc12 [parent compound] | > 200 µM

---

assay.name: in vitro
test.context: human

compound | CC50
COc1cccc2[nH]c(C(=O)N[C@@H](CC(C)C)C(=O)N[C@@H](C[C@@H]3CCNC3=O)C(=O)CO)cc12 [parent compound] | > 10 µM

---

system: OATP1B3 (Homo sapiens, UniProt Q9NPD5)
Sequence (Q9NPD5 whole entry): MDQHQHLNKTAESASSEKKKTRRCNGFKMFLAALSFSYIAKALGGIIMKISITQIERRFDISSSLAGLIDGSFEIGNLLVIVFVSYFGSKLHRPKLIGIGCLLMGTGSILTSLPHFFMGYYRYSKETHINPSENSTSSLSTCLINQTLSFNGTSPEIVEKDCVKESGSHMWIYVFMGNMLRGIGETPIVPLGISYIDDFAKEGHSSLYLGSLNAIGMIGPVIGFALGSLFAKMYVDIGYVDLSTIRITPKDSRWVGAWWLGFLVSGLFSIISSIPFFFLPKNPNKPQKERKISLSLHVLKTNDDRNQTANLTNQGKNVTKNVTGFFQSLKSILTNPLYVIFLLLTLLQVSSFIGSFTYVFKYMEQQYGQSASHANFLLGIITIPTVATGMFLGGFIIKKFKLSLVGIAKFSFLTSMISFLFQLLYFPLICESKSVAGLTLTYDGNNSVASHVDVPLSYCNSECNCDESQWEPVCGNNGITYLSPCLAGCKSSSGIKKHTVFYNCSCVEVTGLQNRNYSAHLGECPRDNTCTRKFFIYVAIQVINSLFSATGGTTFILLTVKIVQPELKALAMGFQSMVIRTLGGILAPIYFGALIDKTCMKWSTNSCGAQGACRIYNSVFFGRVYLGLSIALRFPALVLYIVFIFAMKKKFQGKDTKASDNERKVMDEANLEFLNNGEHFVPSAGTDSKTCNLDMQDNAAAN
pIC50: −log10 of the molar value.

substance.smiles | pIC50
COc1cccc2[nH]c(C(=O)N[C@@H](CC(C)C)C(=O)N[C@@H](C[C@@H]3CCNC3=O)C(=O)CO)cc12 | < 4.70

---

system: UniProt Q86VL8
Sequence (Q86VL8 other isoform, or with tags, fused parts or gaps): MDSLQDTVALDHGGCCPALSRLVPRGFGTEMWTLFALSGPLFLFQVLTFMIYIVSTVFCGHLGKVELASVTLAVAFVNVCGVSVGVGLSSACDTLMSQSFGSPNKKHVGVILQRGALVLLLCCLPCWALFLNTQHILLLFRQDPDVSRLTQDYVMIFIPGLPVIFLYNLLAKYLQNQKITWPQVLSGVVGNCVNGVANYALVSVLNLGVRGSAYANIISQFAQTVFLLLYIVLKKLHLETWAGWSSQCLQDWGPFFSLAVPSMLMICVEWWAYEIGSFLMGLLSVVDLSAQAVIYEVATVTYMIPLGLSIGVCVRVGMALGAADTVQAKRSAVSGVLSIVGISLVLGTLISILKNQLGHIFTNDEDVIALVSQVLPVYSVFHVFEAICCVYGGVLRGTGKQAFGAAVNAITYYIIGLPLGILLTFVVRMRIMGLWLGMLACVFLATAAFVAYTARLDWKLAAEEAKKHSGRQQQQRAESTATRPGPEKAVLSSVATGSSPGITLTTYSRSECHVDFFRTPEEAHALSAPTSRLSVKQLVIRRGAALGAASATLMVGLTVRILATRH
pIC50: −log10 of the molar value.
observable: pIC50

molecule | obs.value
COc1cccc2[nH]c(C(=O)N[C@@H](CC(C)C)C(=O)N[C@@H](C[C@@H]3CCNC3=O)C(=O)CO)cc12 [parent compound] | < 4.70

---

Test system: Vero E6-EGFP cells
test.context: read-out: CC50 μM GeoMean (95% CI); efflux inhibitor 0

compound | CC50
COc1cccc2[nH]c(C(=O)N[C@@H](CC(C)C)C(=O)N[C@@H](C[C@@H]3CCNC3=O)C(=O)CO)cc12 [parent compound] | > 100 µM

---

system: UniProt:Q96FL8
Sequence (Q96FL8 whole entry): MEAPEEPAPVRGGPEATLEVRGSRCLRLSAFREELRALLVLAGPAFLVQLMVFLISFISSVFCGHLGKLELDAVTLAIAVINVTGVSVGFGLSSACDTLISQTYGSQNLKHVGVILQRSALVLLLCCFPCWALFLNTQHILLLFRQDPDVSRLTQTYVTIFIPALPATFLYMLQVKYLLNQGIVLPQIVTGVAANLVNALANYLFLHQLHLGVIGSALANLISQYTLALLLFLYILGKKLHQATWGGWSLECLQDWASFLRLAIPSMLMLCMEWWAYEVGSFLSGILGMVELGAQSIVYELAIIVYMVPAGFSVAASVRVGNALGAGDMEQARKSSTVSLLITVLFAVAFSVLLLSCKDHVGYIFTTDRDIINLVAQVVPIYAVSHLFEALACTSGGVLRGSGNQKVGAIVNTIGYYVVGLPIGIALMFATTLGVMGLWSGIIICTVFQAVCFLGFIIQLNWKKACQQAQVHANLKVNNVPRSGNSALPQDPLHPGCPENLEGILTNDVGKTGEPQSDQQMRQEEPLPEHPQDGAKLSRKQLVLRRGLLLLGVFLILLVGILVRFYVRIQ

substance.smiles | IC50
COc1cccc2[nH]c(C(=O)N[C@@H](CC(C)C)C(=O)N[C@@H](C[C@@H]3CCNC3=O)C(=O)CO)cc12 | > 20 µM

---

system: PEDV-CoV-2 3CLpro (Porcine epidemic diarrhea virus, UniProt P0C6Y4)
Sequence (P0C6Y4 2998-3299): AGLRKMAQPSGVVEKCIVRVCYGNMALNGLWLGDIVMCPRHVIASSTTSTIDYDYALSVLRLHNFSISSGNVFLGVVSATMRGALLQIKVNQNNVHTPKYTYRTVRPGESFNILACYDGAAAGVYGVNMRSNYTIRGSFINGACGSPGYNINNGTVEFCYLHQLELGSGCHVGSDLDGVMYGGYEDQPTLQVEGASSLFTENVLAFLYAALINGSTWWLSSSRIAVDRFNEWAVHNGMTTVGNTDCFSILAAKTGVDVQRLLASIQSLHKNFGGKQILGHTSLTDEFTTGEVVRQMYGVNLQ

compound | Ki (nM)
COc1cccc2[nH]c(C(=O)N[C@@H](CC(C)C)C(=O)N[C@@H](C[C@@H]3CCNC3=O)C(=O)CO)cc12 [parent compound] | 0.3
